experimentalReadout: AC50

Form field: AC50 recorded for Clc1ccc(Cn2c(CN3CCCC3)nc3ccccc32)cc1 with UniProt:Q9Y5N1 (enter value)
Sequence (Q9Y5N1 whole entry): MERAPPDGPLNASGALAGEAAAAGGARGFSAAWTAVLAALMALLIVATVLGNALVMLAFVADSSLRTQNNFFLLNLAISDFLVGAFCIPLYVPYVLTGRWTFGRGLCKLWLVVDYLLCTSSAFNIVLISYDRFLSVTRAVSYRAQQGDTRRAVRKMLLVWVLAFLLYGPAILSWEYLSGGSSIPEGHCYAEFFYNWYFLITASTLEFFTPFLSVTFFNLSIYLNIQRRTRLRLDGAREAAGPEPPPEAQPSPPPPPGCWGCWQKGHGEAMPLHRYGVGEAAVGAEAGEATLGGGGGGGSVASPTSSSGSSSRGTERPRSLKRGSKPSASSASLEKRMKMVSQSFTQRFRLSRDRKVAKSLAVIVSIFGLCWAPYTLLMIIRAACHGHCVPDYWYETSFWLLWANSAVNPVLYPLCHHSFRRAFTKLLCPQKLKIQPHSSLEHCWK
> 30 µM

UniProt:Q9Y5N1 / AC50 / CC[C@@H](CO)NC(=O)[C@@H]1C=C2c3cccc4c3c(cn4C)C[C@H]2N(C)C1 [METHYSERGIDE] : value?
> 10 µM

# returns recorded AC50 (system: UniProt:Q9Y5N1) for c1ccc(C2(N3CCCCC3)CCCCC2)cc1
> 30 µM

// lookup AC50 | system=UniProt:Q9Y5N1 | key= CCCCCCCN(CC)CCCC(O)c1ccc(NS(C)(=O)=O)cc1 (configuration not stated) [IBUTILIDE]
> 30 µM

Find AC50 (UniProt:Q9Y5N1) for the entry CC=CC1=C(C(=O)O)N2C(=O)[C@@H](NC(=O)[C@H](N)c3ccc(O)cc3)[C@H]2SC1
> 30 µM

Provide value of AC50 for this record tested with UniProt:Q9Y5N1: CC(C)(C)NCC(O)c1ccccc1Cl (configuration not stated)
> 30 µM

Give recorded AC50 with UniProt:Q9Y5N1 for the following molecule: Cc1ccc(C)c(OCCCC(C)(C)C(=O)O)c1
> 10 µM

* * *

Exercise: for every item that follows, state its recorded AC50.
targetSystem: Muscarinic acetylcholine receptor M1 (Homo sapiens, UniProt P11229); also: assay procedure not described here
Sequence (P11229 whole entry): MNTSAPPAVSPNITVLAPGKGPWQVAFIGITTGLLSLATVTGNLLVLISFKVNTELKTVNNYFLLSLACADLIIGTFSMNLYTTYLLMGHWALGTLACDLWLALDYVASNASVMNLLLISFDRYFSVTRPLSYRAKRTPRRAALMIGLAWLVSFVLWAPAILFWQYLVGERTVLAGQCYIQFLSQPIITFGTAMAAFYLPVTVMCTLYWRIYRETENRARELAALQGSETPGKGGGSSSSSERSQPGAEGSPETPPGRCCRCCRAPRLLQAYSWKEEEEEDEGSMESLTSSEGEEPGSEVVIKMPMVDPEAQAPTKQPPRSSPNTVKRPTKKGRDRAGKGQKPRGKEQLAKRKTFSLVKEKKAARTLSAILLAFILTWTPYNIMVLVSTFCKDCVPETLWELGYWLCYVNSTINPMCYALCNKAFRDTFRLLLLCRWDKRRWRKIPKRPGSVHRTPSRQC
Type: functional, cell-based

Lab note: need AC50 for CC[C@@H]1C[C@]1(NC(=O)[C@@H]1C[C@@H]2CN1C(=O)[C@H](C(C)(C)C)NC(=O)OCC(C)(C)CCCCc1cccc3c1CN(C3)C(=O)O2)C(=O)NS(=O)(=O)C1CC1 on Muscarinic acetylcholine receptor M1 (Homo sapiens, UniProt P11229), anyone have it?
> 3 µM

# returns recorded AC50 (system: Muscarinic acetylcholine receptor M1 (Homo sapiens, UniProt P11229)) for COc1ccccc1OC1(C)OC(=O)c2ccccc2O1 (centres undefined); also: assay procedure not described here
> 30 µM

Quick check: AC50 on Muscarinic acetylcholine receptor M1 (Homo sapiens, UniProt P11229), item CC(=O)[C@]1(N)Cc2c(O)c3c(c(O)c2[C@@H](O[C@H]2C[C@H](O)[C@H](O)CO2)C1)C(=O)c1ccccc1C3=O ?
> 3 µM

# value lookup — system Muscarinic acetylcholine receptor M1 (Homo sapiens, UniProt P11229), readout AC50, item c1ccc2c(SC3=NCCN3)c[nH]c2c1; also: assay procedure not described here
> 30 µM

Please provide the recorded AC50 for C[C@H]1O[C@@H](O[C@H]2CC[C@@]3(C)[C@H](CC[C@@H]4[C@@H]3C[C@@H](O)[C@]3(C)[C@@H](C5=CC(=O)OC5)CC[C@]43O)C2)C[C@H](O)[C@@H]1O[C@H]1C[C@H](O)[C@H](O[C@H]2C[C@H](O)[C@H](O[C@@H]3O[C@H](CO)[C@@H](O)[C@H](O)[C@H]3O)[C@@H](C)O2)[C@@H](C)O1 [DESLANOSIDE] , tested on Muscarinic acetylcholine receptor M1 (Homo sapiens, UniProt P11229). Also: assay procedure not described here.
> 30 µM

Requested read-out AC50, target or system Muscarinic acetylcholine receptor M1 (Homo sapiens, UniProt P11229), entry Nc1cccc2c1C(=O)N(C1CCC(=O)NC1=O)C2=O (centres undefined) [POMALIDOMIDE]; also: assay procedure not described here
> 30 µM

Value wanted: AC50 (Muscarinic acetylcholine receptor M1 (Homo sapiens, UniProt P11229)) of entry CCCCC(CC)CN1CN(CC(CC)CCCC)CC(C)(N)C1 (centres undefined)
9.85 µM

AC50 of COc1ccc(OC)c(C(O)C(C)N)c1 (centres undefined) on Muscarinic acetylcholine receptor M1 (Homo sapiens, UniProt P11229)?
> 30 µM

Kindly state the measured AC50 obtained for Clc1ccc(C(Cn2ccnc2)OCc2csc3c(Cl)cccc23)c(Cl)c1 (centres undefined) with Muscarinic acetylcholine receptor M1 (Homo sapiens, UniProt P11229).
9.44 µM

Taken from ChEMBL document CHEMBL5291721.
